Source of measurements: PubChem BioAssay (NCI)

# System: U251 CNS
# measurement notes: NCI-60 one-dose screen, 48 h
# experimental setup: 10 µM unless noted
This is part of a sample that, as a whole, favours compounds with a hit. Of some 83,000 tested, about 20% had one in any assay. Activity calls are given as the source filed them. Rule for the calls: active = growth percent below 10; inactive = the rest.
Hello, when you answer, please use one of the following outcomes: active, inactive

Example entries and their recorded answers appear below.
[
  {
    "compound": "O=C([O][Sn]([O]C(=O)c1ccccn1)([c]1ccccc1)[c]1ccccc1)c1ccccn1",
    "classification": "inactive"
  },
  {
    "compound": "COc1ccc(-c2c(N)n[nH]c2-c2cc(OC)c(OC)c(OC)c2)cc1",
    "classification": "inactive"
  }
]

[Q] Please state the recorded outcome for this compound: CC(C)CC1NC(C)(C)CO1 (stereo unspecified)
[A] inactive

[Q] For O=C(O)C1CCCCN1c1nc(Cl)nc(Cl)n1 (stereo unspecified) , what call appears in the results of this test?
[A] inactive

[Q] Tell me the recorded outcome of this test for O=C(O)COc1ccc(-c2cssc2=S)cc1 .
[A] inactive

[Q] # fetch the recorded call for COc1ccc(/C=C2\CN(Cc3cn(CCNc4ccnc5cc(Cl)ccc45)nn3)C/C(=C\c3ccc(OC)c(OC)c3)C2=O)cc1OC here
[A] active

[Q] Query: recorded result category for O=S(=O)(NCCNc1nccc(-c2c(-c3ccc(O)cc3)nc3sccn23)n1)c1cccc2ccccc12 in this test
[A] inactive

[Q] Hey, what did the test say about O=C(O)Cc1cccc(=O)c(O)c1C(=O)O ?
[A] inactive

[Q] Which result was noted for this compound in the test: COc1ccc(-c2nc3sc(-c4cc(OC)c(OC)c(OC)c4)nn3c2/C=C2/C(=O)Nc3ccc(F)cc32)cc1
[A] active

[Q] What did this assay record as the result for CC(C)(C)n1cc(-c2ccnc(NCCNS(=O)(=O)c3ccc(C(F)(F)F)cc3)c2)c(-c2cccc(O)c2)n1 ?
[A] inactive

====

# Tested on: SNB-19 CNS
# measurement notes: NCI-60 one-dose screen, 48 h (100 = growth as untreated, 0 = no growth, -100 = all killed)
# experimental setup: 10 µM unless noted
This is part of a sample that, as a whole, favours compounds with a hit. Of some 83,000 tested, about 20% had one in any assay.
property measured: growth (%)
Your answer should be a plain number; it is taken to be in %.

// solved cases for growth follow
[
  {
    "molecule": "Cc1ccc(S(=O)(=O)NCCNc2nccc(-c3c(-c4cccc(N)c4)nc4sccn34)n2)cc1",
    "result": 104
  },
  {
    "molecule": "N#Cc1c(-c2ccccc2)cc(-c2ccccc2)n(CC(=O)NO)c1=O",
    "result": 77
  },
  {
    "molecule": "CC1CCC(C)N(C)C1 (stereo unspecified)",
    "result": 98.6
  },
  {
    "molecule": "Cc1nc2ncccc2nc1Nc1ccc(S(=O)(=O)Nc2ccccn2)cc1",
    "result": 88.5
  }
]

[Q] // growth lookup, key: O=c1[nH]c(-c2ccccc2)nc(CN2CCCCC2)c1O
[A] 97.3

[Q] Consider the molecule Clc1cc2c(nn1)Nc1ccccc1S2 and give its measured growth.
[A] 88.5

[Q] Request the reported growth associated with COc1ccc(-c2ccc(C)n2-c2ccc(-c3nc4ccccc4s3)cc2)cc1
[A] 91.9

[Q] I would be grateful if you could share the reported growth for COc1ccc(-c2nc(/C=C3/C(=O)Nc4ccc(F)cc43)c3ccccn23)cc1 .
[A] 101

[Q] Reported growth, molecule Clc1ccccc1-c1nc2ccccc2[nH]1 : ____
[A] 90

[Q] Could you tell me which growth is on file for CC(C)(C)n1cc(-c2ccnc(NCCNS(=O)(=O)c3ccc(C(F)(F)F)cc3)c2)c(-c2cccc(O)c2)n1 ?
[A] 70.5
